Target: SARS CoV-2 PLpro (Severe acute respiratory syndrome coronavirus 2 (2019-nCoV) (SARS-CoV-2))
Test: biochemical
Assay type: biochemical
Conditions: Table 7; read-out: Enzymatic assay IC50
pIC50: −log10 of the molar value.
PROPERTY MEASURED: pIC50

1) Cc1ccc(N)cc1C(=O)N[C@H](C)c1c(O)ccc2ccccc12
< 4.00
2) Cc1ccc(NC2CNC2)cc1C(=O)N[C@H](C)c1cccc(-c2ccc(CO)s2)c1
5.80
3) Cc1ccc(N)cc1S(=O)(=O)N[C@H](C)c1cccc2ccccc12
< 4.00

* * *

Target: SARS CoV-2 PLpro (Severe acute respiratory syndrome coronavirus 2 (2019-nCoV) (SARS-CoV-2), UniProt P0DTD1)
Assay: biochemical
Type: biochemical
Conditions: read-out: Enzyme inhibition IC50
pIC50: −log10 of the molar value.
PROPERTY MEASURED: pIC50

1) Cc1ccc(NC2CN(C(=O)OC(C)(C)C)C2)cc1C(=O)N[C@H](C)c1cccc2ccccc12
5.22
2) Cc1ccc(NC2CNC2)cc1C(=O)N[C@H](C)c1cccc2ccccc12
6.00
3) Cc1ccc(NC2CCN(C(=O)OC(C)(C)C)CC2)cc1C(=O)N[C@H](C)c1cccc2ccccc12
5.96
4) Cc1ccc(NC(=O)C2CCN(C(=O)OC(C)(C)C)CC2)cc1C(=O)N[C@H](C)c1cccc2ccccc12
5.22
